B1: 2M8U (parent)
chain: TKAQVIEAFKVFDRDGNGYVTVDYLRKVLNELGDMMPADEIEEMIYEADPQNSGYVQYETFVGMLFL

Variants of: B1
Assay: folding stability dG (cDNA display proteolysis); higher = more stable
Settings: PBS, room temperature
measured-attribute: folding stability dG (kcal/mol)

    mutant_name    measured_attribute  unit_tag  value_observed
 0          I6R  folding stability dG  kcal/mol            2.46
 1         Y58S  folding stability dG  kcal/mol            2.04
 2         A38E  folding stability dG  kcal/mol            3.43
 3         L67P  folding stability dG  kcal/mol             3.9
 4          A3R  folding stability dG  kcal/mol            3.23
 5         E42D  folding stability dG  kcal/mol            3.37
 6         Q51C  folding stability dG  kcal/mol            3.71
 7         V56Y  folding stability dG  kcal/mol            2.29
 8         R14V  folding stability dG  kcal/mol            3.83
 9         A48D  folding stability dG  kcal/mol             2.1
10         K27R  folding stability dG  kcal/mol            3.48
11         G33C  folding stability dG  kcal/mol            3.87
12         T21G  folding stability dG  kcal/mol            3.51
13         V20I  folding stability dG  kcal/mol            3.62
14         P37Y  folding stability dG  kcal/mol            3.44
15         F12D  folding stability dG  kcal/mol            2.69
16         M64H  folding stability dG  kcal/mol            3.69
17         K27F  folding stability dG  kcal/mol            3.58
18         R26W  folding stability dG  kcal/mol            3.63
19         Q51D  folding stability dG  kcal/mol            3.56
20         G54W  folding stability dG  kcal/mol            2.82
21         L32D  folding stability dG  kcal/mol            1.84
22         D39T  folding stability dG  kcal/mol            3.66
23         D34E  folding stability dG  kcal/mol            3.77
24         V20N  folding stability dG  kcal/mol            2.76
25         I45D  folding stability dG  kcal/mol            2.39
26          I6L  folding stability dG  kcal/mol            3.66
27          F9G  folding stability dG  kcal/mol             2.1
28          I6P  folding stability dG  kcal/mol            1.65
29         G18W  folding stability dG  kcal/mol            2.68
30          T1Q  folding stability dG  kcal/mol            3.13
31         E40F  folding stability dG  kcal/mol            3.99
32         D34Q  folding stability dG  kcal/mol            3.79
33          F9A  folding stability dG  kcal/mol            2.63
34         D49F  folding stability dG  kcal/mol            2.43
35         N17A  folding stability dG  kcal/mol            3.12
36         A48L  folding stability dG  kcal/mol            3.45
37         V22D  folding stability dG  kcal/mol            1.76
38          V5G  folding stability dG  kcal/mol            1.89
39         V20P  folding stability dG  kcal/mol             2.1
40         K10L  folding stability dG  kcal/mol            3.25
41         F12S  folding stability dG  kcal/mol            2.68
42         F66K  folding stability dG  kcal/mol            2.73
43         K10H  folding stability dG  kcal/mol            2.88
44         G54H  folding stability dG  kcal/mol            2.49
45         L32H  folding stability dG  kcal/mol            2.96
